Target System: HLA-DRB1*01:01 (Homo sapiens, UniProt P01903+P01911, A100R/D57E/F55L/F60I/F76Y/I96L/L162R/M171V/P40L/Q125E/R42F/V115G/Y59C)
Construct: Human leukocyte antigen-DR molecules were immunopurified from homozygous EBV B lymphoblastoid cells; endogenous in cells
Experiment Summary: biochemical
Type: binding
Settings: […]; mean of at least two independent experiments; read-out: IC50 DRB1*0101
*1 amine or outer side, *2 acyl side, *3 side chain or, on linkers, in order; H or OH if unused. Where a SMILES comes first, the peptide text is derived from it. [ ]: non-standard residue; d: D form. X1 = NCCCC[C@@H](C(=O)[*:2])N(C[C@@H]1CCCN1)[*:1]
So I've got a bunch of compounds here, and I need their pIC50 values.
One number for each entry, as −log10 of the molar value.

| Compound | Reading |
| --- | --- |
| CC(C)C[C@H](NC(=O)[C@@H](NC(=O)[C@H](CC(N)=O)NC(=O)[C@H](CCC(N)=O)NC(=O)[C@H](CCCCN)NC(=O)[C@@H](NC(=O)[C@H](Cc1ccc(O)cc1)NC(=O)[C@H](CCCCN)NC(=O)[C@@H]1CCCN1)C(C)C)[C@@H](C)O)C(=O)N[C@@H](CCCCN)C(=O)NC(C)(C)C(=O)N[C@@H](C)C(=O)N[C@H](C(=O)O)[C@@H](C)O | 7.70 |
| CC(C)C[C@H](NC(=O)[C@H](CCCCN)NC(=O)[C@H](CC(C)C)NC(=O)[C@@H](NC(=O)[C@H](CC(N)=O)NC(=O)[C@H](CCC(N)=O)NC(=O)[C@H](CCCCN)NC(=O)[C@@H](NC(=O)[C@H](Cc1ccc(O)cc1)NC(=O)[C@H](CCCCN)NC[C@@H]1CCCN1)C(C)C)[C@@H](C)O)C(=O)N[C@@H](C)C(=O)N[C@H](C(=O)O)[C@@H](C)O [Rd1] (H-[X1]YVKQNTLKLAT-OH; N-terminus and C-terminus assumed) | 8.70 |

Read the next record carefully.
According to the records, this compound "CC(C)C[C@H](NC(=O)[C@H](CCCCN)NC(=O)[C@H](CC(C)C)NC(=O)[C@@H](NC(=O)[C@H](CC(N)=O)NC(=O)[C@H](CCC(N)=O)NC(=O)[C@H](CCCCN)NC(=O)[C@@H](NC(=O)C(C)(C)NC(=O)[C@H](CCCCN)NC(=O)[C@@H]1CCCN1)C(C)C)[C@@H](C)O)C(=O)N[C@@H](C)C(=O)N[C@H](C(=O)O)[C@@H](C)O" displays pIC50 of 7.22
